A short record of IC50 observed with Vascular endothelial growth factor receptor 2 (Homo sapiens, UniProt P35968) follows.
Sequence (P35968 whole entry): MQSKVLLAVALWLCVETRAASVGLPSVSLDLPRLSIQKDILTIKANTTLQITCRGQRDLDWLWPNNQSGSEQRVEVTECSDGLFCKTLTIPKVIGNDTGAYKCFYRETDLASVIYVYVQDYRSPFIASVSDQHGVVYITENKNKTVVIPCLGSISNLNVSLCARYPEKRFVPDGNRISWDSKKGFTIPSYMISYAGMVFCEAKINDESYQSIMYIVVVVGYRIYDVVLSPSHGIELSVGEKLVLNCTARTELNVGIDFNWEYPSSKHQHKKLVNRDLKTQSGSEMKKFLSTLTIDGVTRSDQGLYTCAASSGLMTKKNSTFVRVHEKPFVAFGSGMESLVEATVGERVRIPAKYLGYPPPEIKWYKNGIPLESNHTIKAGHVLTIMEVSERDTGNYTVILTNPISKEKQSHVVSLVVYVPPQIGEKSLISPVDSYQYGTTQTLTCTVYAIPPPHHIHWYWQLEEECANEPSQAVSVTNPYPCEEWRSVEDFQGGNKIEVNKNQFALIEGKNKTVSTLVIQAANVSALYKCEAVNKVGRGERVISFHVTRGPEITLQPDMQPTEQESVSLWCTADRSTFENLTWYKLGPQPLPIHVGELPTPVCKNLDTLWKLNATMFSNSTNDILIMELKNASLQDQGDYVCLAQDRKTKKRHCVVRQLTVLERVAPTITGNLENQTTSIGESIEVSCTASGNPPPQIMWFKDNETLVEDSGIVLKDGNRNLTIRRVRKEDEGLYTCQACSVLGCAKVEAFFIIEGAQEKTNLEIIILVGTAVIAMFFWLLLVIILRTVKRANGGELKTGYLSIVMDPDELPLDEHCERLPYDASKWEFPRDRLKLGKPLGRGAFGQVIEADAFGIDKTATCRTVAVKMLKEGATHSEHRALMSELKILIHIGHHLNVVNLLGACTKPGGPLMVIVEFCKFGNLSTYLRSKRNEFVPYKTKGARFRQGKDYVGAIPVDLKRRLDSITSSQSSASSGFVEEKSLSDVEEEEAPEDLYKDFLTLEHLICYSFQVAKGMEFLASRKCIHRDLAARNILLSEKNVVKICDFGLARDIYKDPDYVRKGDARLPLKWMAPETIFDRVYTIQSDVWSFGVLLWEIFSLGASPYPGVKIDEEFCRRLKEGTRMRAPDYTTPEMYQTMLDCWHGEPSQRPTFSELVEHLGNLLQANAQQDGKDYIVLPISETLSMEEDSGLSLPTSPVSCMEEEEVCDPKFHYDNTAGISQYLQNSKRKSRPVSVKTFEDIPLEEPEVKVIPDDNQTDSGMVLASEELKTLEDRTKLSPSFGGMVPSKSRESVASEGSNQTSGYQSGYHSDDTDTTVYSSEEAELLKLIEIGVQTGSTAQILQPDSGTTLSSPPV

Please review the entries below; each comes with its answer.
COC(=O)c1cc2c(CN3CCCCC3)n[nH]c2s1 > 100 µM
COC(=O)c1cc2c(Nc3ccccc3)[nH]nc2s1 > 100 µM

In: Entry `Cc1[nH]nc2sc(C(N)=O)c(NC(=O)c3ccc(Cl)cc3)c12` : reported IC50 = ?
Out: > 100 µM
